# procedure.summary: Half-lives and pharmacokinetic parameters of polypeptides vs HM-1; also: test concentration or dose not given here
# details: in vivo, T1/2β (half-life)
Peptide text beside a SMILES is read from it. * marks the point of attachment. X54 = O=C1C=CC(=O)N1c1cccc(CCCCCCC(=O)*)c1; X17 = O=C1C=CC(=O)N1CCOCCOCCCCCCCC(=O)*; X79 = O=C1C=CC(=O)N1c1cccc(CCC(=O)*)c1; X2 = O=C1C=CC(=O)N1CCOCCOCCCCCC(=O)*; X67 = O=C1C=CC(=O)N1CCCCCCCCCC(=O)*; X12 = O=C1C=CC(=O)N1CCOCCCCC(=O)*
Lab note: anything with half-life at or over 40 h counts as Y; the rest go in N.

[
  {
    "molecule": "C[C@H](NC(=O)CNC(=O)[C@H](CCCNC(=N)N)NC(=O)CCc1cccc(N2C(=O)C=CC2=O)c1)C(=O)N[C@@H](CC(=O)O)C(=O)N[C@@H](CCCNC(=N)N)C(=O)N[C@@H](C)C(=O)NCC(=O)NCC(=O)NCC(=O)NCC(=O)N[C@@H](CCCNC(=N)N)C(=O)NCC(=O)N[C@@H](CC(=O)O)C(=O)O [X26] (X79-RGADRAGGGGRGD-OH)",
    "discrete.label": "Y"
  },
  {
    "molecule": "C[C@H](NC(=O)CNC(=O)[C@H](CCCNC(=N)N)NC(=O)CCCCCCCCCN1C(=O)C=CC1=O)C(=O)N[C@@H](CC(=O)O)C(=O)N[C@@H](CCCNC(=N)N)C(=O)N[C@@H](C)C(=O)NCC(=O)NCC(=O)NCC(=O)NCC(=O)N[C@@H](CCCNC(=N)N)C(=O)NCC(=O)N[C@@H](CC(=O)O)C(=O)O [X9] (X67-RGADRAGGGGRGD-OH)",
    "discrete.label": "N"
  },
  {
    "molecule": "C[C@H](NC(=O)CNC(=O)[C@H](CCCNC(=N)N)NC(=O)CCCCCCCOCCOCCN1C(=O)C=CC1=O)C(=O)N[C@@H](CC(=O)O)C(=O)N[C@@H](CCCNC(=N)N)C(=O)N[C@@H](C)C(=O)NCC(=O)NCC(=O)NCC(=O)NCC(=O)N[C@@H](CCCNC(=N)N)C(=O)NCC(=O)N[C@@H](CC(=O)O)C(=O)O [X62] (X17-RGADRAGGGGRGD-OH)",
    "discrete.label": "N"
  },
  {
    "molecule": "C[C@H](NC(=O)CNC(=O)[C@H](CCCNC(=N)N)NC(=O)CCCCCCc1cccc(N2C(=O)C=CC2=O)c1)C(=O)N[C@@H](CC(=O)O)C(=O)N[C@@H](CCCNC(=N)N)C(=O)N[C@@H](C)C(=O)NCC(=O)NCC(=O)NCC(=O)NCC(=O)N[C@@H](CCCNC(=N)N)C(=O)NCC(=O)N[C@@H](CC(=O)O)C(=O)O [X30] (X54-RGADRAGGGGRGD-OH)",
    "discrete.label": "N"
  },
  {
    "molecule": "C[C@H](NC(=O)CNC(=O)[C@H](CCCNC(=N)N)NC(=O)CCCCOCCN1C(=O)C=CC1=O)C(=O)N[C@@H](CC(=O)O)C(=O)N[C@@H](CCCNC(=N)N)C(=O)N[C@@H](C)C(=O)NCC(=O)NCC(=O)NCC(=O)NCC(=O)N[C@@H](CCCNC(=N)N)C(=O)NCC(=O)N[C@@H](CC(=O)O)C(=O)O [X52] (X12-RGADRAGGGGRGD-OH)",
    "discrete.label": "N"
  },
  {
    "molecule": "C[C@H](NC(=O)CNC(=O)[C@H](CCCNC(=N)N)NC(=O)CCCCCOCCOCCN1C(=O)C=CC1=O)C(=O)N[C@@H](CC(=O)O)C(=O)N[C@@H](CCCNC(=N)N)C(=O)N[C@@H](C)C(=O)NCC(=O)NCC(=O)NCC(=O)NCC(=O)N[C@@H](CCCNC(=N)N)C(=O)NCC(=O)N[C@@H](CC(=O)O)C(=O)O [X60] (X2-RGADRAGGGGRGD-OH)",
    "discrete.label": "N"
  }
]

// provenance: patent US20200270309A1
